Source of measurements: patent US20220306751A1

- target.under.test: T1, CD123 Protein, His Tag, Acro Biosciences Cat. No. ILA-H52H6 (Homo sapiens (Human), UniProt P26951 19-305)
- T1 construct: Bought protein; not shown: His tag
- T1 sequence: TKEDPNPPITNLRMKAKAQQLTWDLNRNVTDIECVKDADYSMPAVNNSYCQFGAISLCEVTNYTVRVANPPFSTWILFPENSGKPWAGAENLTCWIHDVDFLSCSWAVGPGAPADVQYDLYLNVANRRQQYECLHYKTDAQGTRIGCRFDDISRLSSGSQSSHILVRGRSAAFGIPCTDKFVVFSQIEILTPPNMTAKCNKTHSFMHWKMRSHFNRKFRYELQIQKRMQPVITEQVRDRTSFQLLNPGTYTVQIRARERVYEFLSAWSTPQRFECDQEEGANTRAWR
- test: BLI, IgG on anti-human Fc sensor, 50 nM CD123, pH 7.4 and pH 5.4
measured.endpoint: binding result

1. MYT1265 (antibody, V domains shown, IgG) VH: QVQLVQSGAEVKKPGASVKVSCKASGYIFTSSIMHWVRQAPGQGLEWIGYIKHYNDGTKYNEKFKGRATLTSDRSTSTAYMELSSLRSEDTAVYYCAREGGNDYYDTMDYWGQGTLVTVSS VL: DIQMTQSPSSLSASVGDRVTITCRASQDINSYLSWFQQKPGKAPKTLIYRVNRLVDGVPSRFSGSGSGNDYTLTISSLQPEDFATYYCLQYDAFPYTFGQGTKVEIK | binds
2. MYT1288 (antibody, V domains shown, IgG) VH: QVQLVQSGAEVKKPGASVKVSCKASGYIFTSSIMHWVRQAPGQGLEWIGYIKPYNDGTKYNEKFKGRATLTSDRSTSTAYMELSSLRSEDTAVYYCAREGGNDYYHTMDYWGQGTLVTVSS VL: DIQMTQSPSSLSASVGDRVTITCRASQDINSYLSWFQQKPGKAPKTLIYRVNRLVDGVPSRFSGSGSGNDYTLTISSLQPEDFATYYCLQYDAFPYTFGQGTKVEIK | binds
3. MYT1449 (antibody, V domains shown, IgG) VH: QVQLVQSGAEVKKPGASVKMSCKASGYTFTDYYMKWVKQAPGQGLEWIGDIIPSNGATFYNQKFKGKATLTVDRSISTAYMHLNRLRSDDTAVYYCTRSHLLRAHWFAYWGQGTLVTVSS VL: DFVMTQSPDSLAVSLGERATINCKSSQSLLNSGNQKNYLTWYLQKPGQPPKLLIYWASTRESGVPDRFSGSGSGTDFTLTISSLQAEDVAVYYCQNDYSYPYTFGQGTKLEIK | binds
